- tested.on: T1, human TREM2 (human, UniProt Q9NZC2 19-174, limits assumed)
- T1 sequence: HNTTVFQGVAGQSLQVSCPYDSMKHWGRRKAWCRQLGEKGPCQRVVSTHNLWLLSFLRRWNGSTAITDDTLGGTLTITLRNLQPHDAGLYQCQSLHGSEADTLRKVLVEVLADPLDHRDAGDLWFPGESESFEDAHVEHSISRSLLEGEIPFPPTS
- test.protocol: yeast-displayed Fab FACS, 2nd screen 100 nM
measured.quantity: binding signal fold over 6E7 parental (fold)
Response body: numeric value in fold, unit text excluded.

binder	binding signal fold over 6E7 parental / fold
V34 (Fab, V domains shown) VH: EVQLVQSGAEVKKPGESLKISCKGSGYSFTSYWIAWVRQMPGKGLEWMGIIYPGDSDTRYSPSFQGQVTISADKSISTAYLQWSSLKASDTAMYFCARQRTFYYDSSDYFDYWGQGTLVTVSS VL: DIQMTQSPSSVSASVGDRVTITCRASQGISSWLAWYQQKPGKAPKLLIYAASSLQDGVPSRFSGSGSGTDFTLTISSLQPEDFATYFCQQADSFPRTFGQGTKLEIK	1.02

Moving on to the next binder.
Req: Quick one: binding signal fold over 6E7 parental for V58 (Fab, V domains shown) VH: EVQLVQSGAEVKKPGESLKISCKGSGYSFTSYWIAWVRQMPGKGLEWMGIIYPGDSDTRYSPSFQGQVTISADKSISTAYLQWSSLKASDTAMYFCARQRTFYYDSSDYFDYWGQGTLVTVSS VL: DIQMTQSPSSVSASVGDRVTITCRASQGISSWLAWYQQKPGKAPKLLIYKASSLQNGVPSRFSGSGSGTDFTLTISSLQPEDFATYFCQQADSFPRTFGQGTKLEIK ?
Resp: 0.68
